All figures here come from patent US20230096766A1.

# test_name: in vitro
# applied_conditions: human, Caco-2, Caco-2 (cm/sec)
Where a SMILES comes first, the peptide text is derived from it. Bridges are numbered along the chain shown (N, C = ends). [ ]: non-standard residue; d: D form. The star is where a group is joined. NMePhe(3-Cl) = CN[C@@H](Cc1cccc(Cl)c1)C(=O)O; NMehPhe = CN[C@@H](CCc1ccccc1)C(=O)O; Propyl(2,2-Me2,3-OH) = CC(C)(CO)C*; NMeF = CN[C@@H](Cc1ccccc1)C(=O)O; NMeI = CC[C@H](C)[C@H](NC)C(=O)O; NMeL = CN[C@@H](CC(C)C)C(=O)O; NMeA = CN[C@@H](C)C(=O)O; Piperidide = C1CCN(*)CC1; dAbu = CC[C@@H](N)C(=O)O; NBuGly = CCCCNCC(=O)O; NPrGly = CCCNCC(=O)O; Ethyl(2-OH) = OCC*; X3 = C[C@H](O)C*; Sar = CNCC(=O)O; tBu = CC(C)(C)*
outcome_measure: Papp (nm/s)
Field format: number, assumed nm/s, no unit text.

Look over these answered cases.
CCCCN1CC(=O)N(C)[C@@H](CC(C)C)C(=O)N[C@@H](COC(C)(C)C)C(=O)N(C)[C@@H](Cc2ccccc2)C(=O)N(C)[C@@H](CC(C)C)C(=O)N[C@H](C(=O)N2CCCCC2)CC(=O)N[C@H](CC)C(=O)N(C)[C@@H](Cc2ccccc2)C(=O)N[C@@H](COCC(C)(C)CO)C(=O)N(C)[C@@H](CC(C)C)C(=O)N[C@@H]([C@@H](C)O)C1=O [AP117] ([dAbu][NMeF]S(Propyl(2,2-Me2,3-OH))[NMeL]T[NBuGly][NMeL]S(tBu)[NMeF][NMeL]D-Piperidide; lactam N-11) = 3.6
CCCN1CC(=O)N(C)[C@@H](CC(C)C)C(=O)N[C@H](C(=O)N2CCCCC2)CC(=O)N(C)[C@@H](C)C(=O)N[C@@H](COC[C@H](C)O)C(=O)N(C)[C@@H](CC(C)C)C(=O)N(C)[C@@H](Cc2cccc(Cl)c2)C(=O)N[C@@H](CC(C)C)C(=O)N(C)[C@@H](Cc2ccccc2)C(=O)N(C)[C@@H]([C@@H](C)CC)C(=O)N[C@@H]([C@@H](C)O)C1=O [AP65] ([NMeA]S(X3)[NMeL][NMePhe(3-Cl)]L[NMeF][NMeI]T[NPrGly][NMeL]D-Piperidide; lactam N-11) = 12

Now consider the entry below.
Papp reading for CC(C)C[C@@H]1NC(=O)[C@H](CCc2ccccc2)N(C)C(=O)[C@@H](C(C)C)NC(=O)C[C@@H](C(=O)N2CCCCC2)NC(=O)[C@H](CC(C)C)N(C)C(=O)[C@H](Cc2cccc(Cl)c2)N(C)C(=O)[C@H](COCCO)NC(=O)[C@H](CC(C)C)N(C)C(=O)CN(C)C(=O)[C@H]([C@@H](C)O)NC(=O)[C@H](CC(C)C)N(C)C1=O [Compound A02] ([dV][NMehPhe]L[NMeL]T[Sar][NMeL]S(Ethyl(2-OH))[NMePhe(3-Cl)][NMeL]D-Piperidide; lactam N-11) : 4.5

---

# test_name: in vitro
# applied_conditions: human, Caco-2, Caco-2 (cm/sec)
*1 amine or outer side, *2 acyl side, *3 side chain or, on linkers, in order; H or OH if unused. Where a SMILES comes first, the peptide text is derived from it. Bridges are numbered along the chain shown (N, C = ends). [ ]: non-standard residue; d: D form. The star is where a group is joined. Phe(3-CONHMe,4-OMe) = CNC(=O)c1cc(C[C@H](N)C(=O)O)ccc1OC; X1 = COc1cc(C[C@H](N[*:1])C(=O)[*:2])ccc1C(=O)NO; NMePhe(3-Cl) = CN[C@@H](Cc1cccc(Cl)c1)C(=O)O; NMeF = CN[C@@H](Cc1ccccc1)C(=O)O; NMeI = CC[C@H](C)[C@H](NC)C(=O)O; NMeL = CN[C@@H](CC(C)C)C(=O)O; Propyl(2R-OH) = C[C@@H](O)C*; NMeV = CN[C@H](C(=O)O)C(C)C; NMeAbu = CC[C@H](NC)C(=O)O; Piperidide = C1CCN(*)CC1; NBuGly = CCCCNCC(=O)O; Sar = CNCC(=O)O
Some molecules, each annotated with its measured Papp.
Field format: number, assumed nm/s, no unit text.

Look over these answered cases.
CCCCN1CC(=O)N(C)[C@@H](CC(C)C)C(=O)N[C@@H](Cc2ccc(C(=O)NO)c(OC)c2)C(=O)N(C)[C@@H](CC(C)C)C(=O)N(C)[C@@H](CC(C)C)C(=O)N[C@H](C(=O)N2CCCCC2)CC(=O)N[C@H](CC(C)C)C(=O)N(C)[C@@H](Cc2ccccc2)C(=O)N[C@@H](C(C)C)C(=O)N(C)[C@@H](CC(C)C)C(=O)N[C@@H]([C@@H](C)O)C1=O [AP257] ([dL][NMeF]V[NMeL]T[NBuGly][NMeL][X1][NMeL][NMeL]D-Piperidide; lactam N-11) = 0.3
CC[C@H](C)[C@H]1C(=O)N[C@@H]([C@@H](C)O)C(=O)N(C)CC(=O)N(C)[C@@H](CC)C(=O)N[C@H](C(=O)N2CCCCC2)CC(=O)N(C)[C@@H](CC(C)C)C(=O)N[C@@H](Cc2ccc(OC)c(C(=O)NC)c2)C(=O)N(C)[C@@H](CC(C)C)C(=O)N(C)[C@@H](Cc2ccccc2)C(=O)N[C@@H](CC(C)C)C(=O)N(C)[C@@H](CC(C)C)C(=O)N1C [AP39] ([NMeL][Phe(3-CONHMe,4-OMe)][NMeL][NMeF]L[NMeL][NMeI]T[Sar][NMeAbu]D-Piperidide; lactam N-11) = 0.1

Now consider the entry below.
Papp reading for CCCCN1CC(=O)N(C)[C@@H](CC(C)C)C(=O)N[C@@H](COC[C@@H](C)O)C(=O)N(C)[C@@H](Cc2cccc(Cl)c2)C(=O)N(C)[C@@H](C(C)C)C(=O)N[C@H](C(=O)N2CCCCC2)CC(=O)N[C@H](C(C)C)C(=O)N(C)[C@@H](Cc2ccccc2)C(=O)N[C@@H](CC(C)C)C(=O)N(C)[C@@H](CC(C)C)C(=O)N[C@@H]([C@@H](C)O)C1=O [AP80] ([dV][NMeF]L[NMeL]T[NBuGly][NMeL]S(Propyl(2R-OH))[NMePhe(3-Cl)][NMeV]D-Piperidide; lactam N-11) : 3.6
